Assay: Inhibition of human Farnesoid X receptor/Retinoid X receptor heterodimer; Antagonistic activity
Format: functional
MEASURED_PARAMETER: IC50

Lab book: IC50 of CCCCCCOc1c(\C(C)=C/C=C/C(C)=C/C(=O)O)cc(C(C)C)cc1C(C)C noted as < 10 nM

The measurements presented in this section are drawn from ChEMBL document CHEMBL1145168.
